Values from patent US20070049564A1

# Tested on: E. coli GC 4560
# EXPERIMENTAL_PROTOCOL: MIC, broth microdilution
# TEST_CONDITIONS: Escherichia coli, GC4560, read-out: MINIMAL INHIBITORY CONCENTRATION MIC, pre-incubated in Mouse Serum
Overview of recorded MIC for various molecules
Just the number plus its unit, please.

Guide cases for MIC, answers given:
[
  {
    "MOLECULE": "CCCN(CC(=O)Nc1cc(N(C)C)c2c(c1O)C(=O)C1=C(O)[C@]3(O)C(=O)C(C(N)=O)=C(O)[C@@H](N(C)C)[C@@H]3C[C@@H]1C2)C(=O)OCOC(=O)c1ccc(-c2ccccc2)cc1 [Example 24]",
    "RESULT": "0.25 mg/L"
  },
  {
    "MOLECULE": "Cc1ccc(C(=O)OCOC(=O)N(CC(=O)Nc2cc(N(C)C)c3c(c2O)C(=O)C2=C(O)[C@]4(O)C(=O)C(C(N)=O)=C(O)[C@@H](N(C)C)[C@@H]4C[C@@H]2C3)C(C)(C)C)cc1 [Example 47]",
    "RESULT": "1 mg/L"
  }
]

// next item, MIC requested
Consider CCCN(CC(=O)Nc1cc(N(C)C)c2c(c1O)C(=O)C1=C(O)[C@]3(O)C(=O)C(C(N)=O)=C(O)[C@@H](N(C)C)[C@@H]3C[C@@H]1C2)C(=O)OCOC(=O)c1ccsc1 [Example 27] . Its measured MIC is 0.25 mg/L
